Target: UniProtKB Q9BY41
Sequence (Q9BY41 whole entry): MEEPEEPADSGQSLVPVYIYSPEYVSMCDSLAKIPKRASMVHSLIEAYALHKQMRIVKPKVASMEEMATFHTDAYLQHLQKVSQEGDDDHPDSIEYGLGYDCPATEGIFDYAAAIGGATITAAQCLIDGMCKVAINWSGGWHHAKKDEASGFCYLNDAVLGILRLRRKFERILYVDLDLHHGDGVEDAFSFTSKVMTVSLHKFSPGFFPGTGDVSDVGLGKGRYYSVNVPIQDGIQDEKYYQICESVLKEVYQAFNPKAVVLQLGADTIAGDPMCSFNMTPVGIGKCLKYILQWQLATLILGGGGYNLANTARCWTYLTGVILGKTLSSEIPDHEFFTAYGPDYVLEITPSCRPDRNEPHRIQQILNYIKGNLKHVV
metric name: IC50 (nM)

>>> result("Cc1cc(F)cc(C)c1Oc1ccc(C(C)(C)O)cc1-c1cn(C)c(=O)c2[nH]c(C(=O)NCCCCCCC(=O)NO)cc12")
583

###

// each record: one item and its IC50 for Histone deacetylase 1 (Homo sapiens, UniProt Q13547)
metric name: IC50 (nM)

>>> result("Cn1cc(-c2ccccc2Oc2ccccc2)c2cc(C(=O)NCCCCC(=O)NO)[nH]c2c1=O")
142
>>> result("COc1ccccc1-c1cn(C)c(=O)c2[nH]c(C(=O)NCc3ccc(C(=O)Nc4ccccc4N)cc3)cc12")
57.6
>>> result("Cc1cc(F)cc(C)c1Oc1ccc(C(C)(C)O)cc1-c1cn(C)c(=O)c2[nH]c(C(=O)NCCCCCCC(=O)NO)cc12")
228
>>> result("Cn1cc(-c2cc(C(C)(C)O)ccc2Oc2ccccc2)c2cc(C(=O)NCc3ccc(C(=O)Nc4ccccc4N)cc3)[nH]c2c1=O")
229
>>> result("Cn1cc(-c2ccccc2Oc2ccccc2)c2cc(C(=O)NCCCCCC(=O)NO)[nH]c2c1=O")
44.4
>>> result("Cn1cc(-c2cc(C(C)(C)O)ccc2Oc2ccc(F)cc2F)c2cc(C(=O)NCc3ccc(C(=O)NO)cc3)[nH]c2c1=O")
74
>>> result("CC(C)Oc1ccc(C(C)(C)O)cc1-c1cn(C)c(=O)c2[nH]c(C(=O)NCc3ccc(C(=O)NO)cc3)cc12")
36
>>> result("COc1ccc(C(C)(C)O)cc1-c1cn(C)c(=O)c2[nH]c(C(=O)NCc3ccc(C(=O)Nc4ccccc4N)cc3)cc12")
333
>>> result("Cc1cc(F)cc(C)c1Oc1ccc(C(C)(C)O)cc1-c1cn(C)c(=O)c2[nH]c(C(=O)NCc3ccc(C(=O)NO)cc3)cc12")
293
>>> result("CC(C)Oc1ccc(C(C)(C)O)cc1-c1cn(C)c(=O)c2[nH]c(C(=O)NCCCCCCC(=O)NO)cc12")
19.4
>>> result("Cn1cc(-c2cc(C(C)(C)O)ccc2OC2CC2)c2cc(C(=O)NCCCCCCC(=O)NO)[nH]c2c1=O")
29.8
>>> result("Cn1cc(-c2ccccc2Oc2ccccc2)c2cc(C(=O)NCCCCCCC(=O)NO)[nH]c2c1=O")
29.5
>>> result("Cn1cc(-c2ccccc2Oc2ccccc2)c2cc(C(=O)NCc3ccc(C(=O)Nc4ccccc4N)cc3)[nH]c2c1=O")
126
>>> result("Cn1cc(-c2ccccc2C(F)(F)F)c2cc(C(=O)NCc3ccc(C(=O)Nc4ccccc4N)cc3)[nH]c2c1=O")
210
